biological target: T1, hCD47-ECD/Fc protein (Sinobiological) (human, UniProt Q08722 19-139, biotinylated in the Octet assay, sites not stated); assay: BLI (Octet RED96), biotin-hCD47-ECD/Fc on SA sensors, 1:1 model;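 note: test antibodies as analytes, 300 s association then 300 s dissociation in running buffer, with benchmark reference antibodies run as controls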
T1 construct: extracellular domain; Bought protein; also called human CD47-Fc antigen; recombinant hCD47-ECD/Fc; not shown: Fc part of the bought fusion protein
T1 sequence (Q08722 19-139 limits assumed): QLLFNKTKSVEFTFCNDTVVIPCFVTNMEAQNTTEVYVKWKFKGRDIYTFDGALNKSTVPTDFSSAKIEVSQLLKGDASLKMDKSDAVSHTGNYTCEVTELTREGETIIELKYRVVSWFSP
parameter: kon (M⁻¹ s⁻¹)
Provide the reading as a plain figure in M⁻¹ s⁻¹.

For orientation, consider the following solved cases.
TAC2407 (antibody, V domains shown, Benchmark anti-CD47 antibody; also called 13H3; TJC4) VH: EVQLVESGGGLVKPGGSLRLSCAASGLTFERAWMNWVRQAPGKGLEWVGRIKRKTDGETTDYAAPVKGRFSISRDDSKNTLYLQMNSLKTEDTAVYYCAGSNRAFDIWGQGTMVTVSS VL: DIVMTQSPDSLAVSLGERATINCKSSQSVLYAGNNRNYLAWYQQKPGQPPKLLINQASTRASGVPDRFSGSGSGTEFTLIISSLQAEDVAIYYCQQYYTPPLAFGGGTKLEIK = 520000
TY25035 (antibody, V domains shown) VH: EVQLVESGGGLVQPGGSLRLSCAASGYSISSGYHWDWIRQAPGKGLEWLARIYWDGDKRYSPSLKSRLTISRDNSKNTLYLQLNSLRAEDTAVYYCARFSDGFDPWGQGTLVTVSS VL: EIVLTQSPATLSLSPGERATLSCRASQSVDFVGISFLHWYQQKPGQAPRLLIYDASNRATGIPARFSGSGSGTDFTLTISSLEPEDFAVYYCVQGLQWPHTFGQGTKVEIKR = 171000
TY25036 (antibody, V domains shown) VH: QVQLVQSGAEVKKPGSSVKVSCKASGYTFTGYAIHWVRQAPGQGLEWIGWISPSSGSTKYAQKFQGRVTITADKSTSTAYMELSSLRSEDTAVYYCARYGYGPVFDYWGQGTLVTVSS VL: DIQLTQSPSSLSASVGDRVTITCSASSSVTYIYWYQQKPGKAPKLLIYDASNRATGIPSRFSGSGSGTDFTLTISSLQPEDFATYYCQQYTSSPRGFTFGQGTKVEIKR = 93700
TY25033 (antibody, V domains shown) VH: QVQLVQSGAEVKKPGSSVKVSCKASGFTFTSYAIHWVRQAPGQGLEWIGIINPNFGSTNYAQKFQGRVTITADKSTSTAYMELSSLRSEDTAVYYCARYYYGASFDVWGQGTLVTVSS VL: DIQLTQSPSSLSASVGDRVTITCKSGQSLLHGDVKTYLYWYQQKPGKAPKLLIYDASNRATGIPSRFSGSGSGTDFTLTISSLQPEDFATYYCQQYASWPPGFTFGQGTKVEIKR = 58900

Consider now this further binder.
[Q] So what's the measured kon for this one? TY25038 (antibody, V domains shown) VH: QVQLVQSGAEVKKPGSSVKVSCKASGFTFSRYAIHWVRQAPGQGLEWLGGIIPVFGTANYAQKFQGRVTITADKSTSTAYMELSSLRSEDTAVYYCARQGILGGFAYWGQGTLVTVSS VL: DIQLTQSPSSLSASVGDRVTITCRASESVDFHGKSFLAWYQQKPGKAPKLLIYAASSLQSGVPSRFSGSGSGTDFTLTISSLQPEDFATYYCQQYLELPFTFGQGTKVEIKR
[A] 249000
